Ref: patent US6759544B2

- Test system: Streptococcus mutans (ATCC 25175)
- Test: Minimum inhibitory concentration, Streptococcus mutans
- Assay type: cell-based
- Condition info: pH 5.5
For each entry below, report its Minimum inhibitory concentration value.
Response body: numeric value in µM, unit text excluded.

Bench note: what Minimum inhibitory concentration did O.O.O.O.O.O=S(=O)([O-])[O-].[Cu+2] [CuSO4.5H2O, copper(II) sulfate pentahydrate] show?
4010

# lookup: Minimum inhibitory concentration of O.O.O.O.O.O.O.O=S(=O)([O-])[O-].[Zn+2] [ZnSO4.7H2O, zinc(II) sulfate heptahydrate]
17500

Sample CCCCCCCCCCCCCCCC[n+]1ccccc1.O.[Cl-] [Cetylpridinium chloride.H2O, cetylpyridinium chloride.H2O] — what was its Minimum inhibitory concentration?
2.79

Would you mind telling me what Minimum inhibitory concentration value was observed for CC1=CC(=O)[N-]S(=O)(=O)O1.CCCCCCCCCCCCCCCC[n+]1ccccc1 [Cetylpyridinium(acesulfame), Acesulfame-Cetylpyridinium Complex] ?
2.14
